# credit: paper doi:10.1101/2024.06.05.597555v1

Target: DENV2proHeLa NS2B-NS3 protease (Dengue virus 2 Thailand/16681/84, UniProt P29990)
Sequence (P29990 1476-2093 limits assumed): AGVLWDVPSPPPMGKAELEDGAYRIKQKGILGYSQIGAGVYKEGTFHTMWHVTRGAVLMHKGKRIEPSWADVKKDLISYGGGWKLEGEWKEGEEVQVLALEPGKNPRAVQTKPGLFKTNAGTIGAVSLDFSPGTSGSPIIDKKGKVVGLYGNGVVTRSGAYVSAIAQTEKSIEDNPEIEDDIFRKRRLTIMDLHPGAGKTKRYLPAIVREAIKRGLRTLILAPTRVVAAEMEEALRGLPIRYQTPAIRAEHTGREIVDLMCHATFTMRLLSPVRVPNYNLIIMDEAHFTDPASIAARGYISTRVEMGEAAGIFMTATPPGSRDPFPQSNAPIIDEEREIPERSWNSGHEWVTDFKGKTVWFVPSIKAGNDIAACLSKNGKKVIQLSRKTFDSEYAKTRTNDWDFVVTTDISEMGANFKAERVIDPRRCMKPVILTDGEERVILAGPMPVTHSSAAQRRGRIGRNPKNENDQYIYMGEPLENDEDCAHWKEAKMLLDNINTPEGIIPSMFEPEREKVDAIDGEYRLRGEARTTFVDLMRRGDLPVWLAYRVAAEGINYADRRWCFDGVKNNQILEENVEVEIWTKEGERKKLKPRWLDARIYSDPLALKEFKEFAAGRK
Sequence (P29990 1346-1475 partner limits assumed): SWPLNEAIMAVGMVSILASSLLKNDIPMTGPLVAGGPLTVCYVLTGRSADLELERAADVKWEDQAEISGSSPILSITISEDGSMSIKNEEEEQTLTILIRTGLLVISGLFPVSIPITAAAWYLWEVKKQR
Assay: cell-based
Set-up: species or system DENV2proHeLa (HeLa)
Conditions: HeLa, read-out: % inhibition
RECORDED METRIC: inhibition at 12.5 µM (%)
Note: unit % is implicit; provide only the numeric part.

Memo: CC(C)CCC(=O)N1CCC(C(=O)N[C@H](C(=O)Nc2cccc(C(N)=O)c2)c2ccc(OCc3ccccc3)cc2)CC1 , reported inhibition at 12.5 µM: 53

Memo: COc1cc(CC(=O)N[C@H](C(=O)Nc2cccc(C(N)=O)c2)c2ccc(OCc3ccccc3)cc2)cc(OC)c1OC , reported inhibition at 12.5 µM: 75

Memo: Cc1onc(-c2ccc(F)cc2)c1C(=O)N[C@H](C(=O)Nc1cccc(C(N)=O)c1)c1ccc(OCc2ccccc2)cc1 , reported inhibition at 12.5 µM: 64

Memo: NC(=O)c1cccc(NC(=O)[C@@H](NC(=O)OCc2ccccc2)c2ccc(OCc3ccccc3)cc2)c1 , reported inhibition at 12.5 µM: 60

Memo: NC(=O)c1cccc(NC(=O)[C@@H](NC(=O)c2ccc(Oc3ccccc3)nc2)c2ccc(OCc3ccccc3)cc2)c1 , reported inhibition at 12.5 µM: 55

Memo: NC(=O)c1cccc(NC(=O)C(NC(=O)c2ccccc2)c2ccc(OCc3ccccc3)cc2)c1 (centres unmarked) , reported inhibition at 12.5 µM: 80

Memo: Cc1nc(-c2ccncc2)sc1C(=O)N[C@H](C(=O)Nc1cccc(C(N)=O)c1)c1ccc(OCc2ccccc2)cc1 , reported inhibition at 12.5 µM: 78

Memo: CC(C(=O)N[C@H](C(=O)Nc1cccc(C(N)=O)c1)c1ccc(OCc2ccccc2)cc1)c1ccccc1 (some centres unmarked) , reported inhibition at 12.5 µM: 77
